FYI, the data here is from patent US20250145589A1.

Each entry below carries its recorded IC50.
ASSAYED SYSTEM: PI3Kδ (Homo sapiens (Human), UniProt O00329)
Sequence (O00329 whole entry): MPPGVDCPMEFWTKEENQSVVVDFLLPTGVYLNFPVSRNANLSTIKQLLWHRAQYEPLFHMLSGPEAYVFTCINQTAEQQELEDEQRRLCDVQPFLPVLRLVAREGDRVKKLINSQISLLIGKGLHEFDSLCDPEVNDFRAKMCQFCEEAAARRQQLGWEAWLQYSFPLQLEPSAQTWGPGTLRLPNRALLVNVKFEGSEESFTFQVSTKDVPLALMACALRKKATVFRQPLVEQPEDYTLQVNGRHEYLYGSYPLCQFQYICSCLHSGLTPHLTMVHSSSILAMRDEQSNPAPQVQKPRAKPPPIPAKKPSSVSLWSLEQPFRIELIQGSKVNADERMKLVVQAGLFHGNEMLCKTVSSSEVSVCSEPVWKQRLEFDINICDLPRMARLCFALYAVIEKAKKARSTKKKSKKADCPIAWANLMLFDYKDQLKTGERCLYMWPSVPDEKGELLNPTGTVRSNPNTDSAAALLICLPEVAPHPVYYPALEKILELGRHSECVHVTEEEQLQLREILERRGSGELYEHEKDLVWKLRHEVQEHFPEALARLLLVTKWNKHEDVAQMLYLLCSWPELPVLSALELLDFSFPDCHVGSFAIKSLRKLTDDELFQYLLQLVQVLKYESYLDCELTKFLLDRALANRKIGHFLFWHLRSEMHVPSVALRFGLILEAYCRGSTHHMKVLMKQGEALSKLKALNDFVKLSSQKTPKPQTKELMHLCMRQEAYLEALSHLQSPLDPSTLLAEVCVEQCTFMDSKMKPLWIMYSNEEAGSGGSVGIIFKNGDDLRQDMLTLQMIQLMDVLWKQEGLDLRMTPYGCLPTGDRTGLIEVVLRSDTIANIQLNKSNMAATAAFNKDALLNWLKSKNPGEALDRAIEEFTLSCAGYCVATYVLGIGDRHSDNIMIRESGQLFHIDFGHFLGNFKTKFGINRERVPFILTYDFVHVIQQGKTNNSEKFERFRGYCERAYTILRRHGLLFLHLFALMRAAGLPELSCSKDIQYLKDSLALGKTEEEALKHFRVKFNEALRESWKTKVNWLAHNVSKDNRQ
Sequence (P27986 whole entry partner): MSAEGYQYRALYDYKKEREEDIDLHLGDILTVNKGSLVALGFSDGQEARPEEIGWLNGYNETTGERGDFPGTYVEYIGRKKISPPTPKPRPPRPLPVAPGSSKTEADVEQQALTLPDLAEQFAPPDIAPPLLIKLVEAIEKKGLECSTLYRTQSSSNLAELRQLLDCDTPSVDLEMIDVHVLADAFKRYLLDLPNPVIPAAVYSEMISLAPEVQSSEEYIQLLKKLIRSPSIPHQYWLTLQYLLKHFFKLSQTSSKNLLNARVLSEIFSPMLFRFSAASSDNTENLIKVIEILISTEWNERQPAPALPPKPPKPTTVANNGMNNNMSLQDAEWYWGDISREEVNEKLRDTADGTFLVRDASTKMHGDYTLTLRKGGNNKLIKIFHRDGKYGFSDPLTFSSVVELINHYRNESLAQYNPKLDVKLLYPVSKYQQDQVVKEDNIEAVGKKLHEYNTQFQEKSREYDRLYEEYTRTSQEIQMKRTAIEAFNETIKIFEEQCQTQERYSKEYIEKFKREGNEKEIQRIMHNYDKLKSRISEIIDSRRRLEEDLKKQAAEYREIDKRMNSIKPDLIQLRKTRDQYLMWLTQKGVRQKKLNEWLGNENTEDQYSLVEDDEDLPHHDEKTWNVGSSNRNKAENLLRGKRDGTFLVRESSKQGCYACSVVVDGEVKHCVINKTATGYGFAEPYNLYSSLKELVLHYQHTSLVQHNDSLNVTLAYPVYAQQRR
ASSAY NOTES: Inhibition of PI3Kδ efficacy assay (ADP-Glo kinase assay)
Assay type: biochemical
PARTICULARS: Table 2; read-out: PI3Kδ inhibitory activity (IC50)
Write the value in nM as a bare number.

// below: answered molecules
CPD SMILES | IC50 [nM]
COc1ncc(-c2ccc3ncnc(N4CCN(C(=O)/C=C/C(C)=O)CC4)c3c2)cc1NS(=O)(=O)c1ccc(C(F)(F)F)cc1F | 61.4
COc1ncc(-c2ccc3ncnc(N4CCN(C(=O)/C=C/C(C)=O)CC4)c3c2)cc1NS(=O)(=O)c1c(F)cc(F)cc1F | 7.9
COc1ncc(-c2ccc3ncnc(N4CCN(C(=O)/C=C/C(C)=O)CC4)c3c2)cc1NS(=O)(=O)c1ccc(C)cc1F | 23.2
COc1ncc(-c2ccc3ncnc(N4CCN(C(=O)/C=C/C(C)=O)CC4)c3c2)cc1NS(=O)(=O)c1cc(Cl)cn1C | 32.2

// next item, IC50 requested
Reported IC50 for `COc1ncc(-c2ccc3ncnc(N4CCC5(CC4)CN(C(=O)/C=C/C(C)=O)C5)c3c2)cc1NS(=O)(=O)c1c(F)cc(F)cc1F` : what is it?
33.6
